biological target: Bombesin receptor subtype-3 (Homo sapiens); assay: Agonist activity at human BRS3 expressed in CHO-K1 cells by IP-One HTRF assay
Sequence (P32247 whole entry): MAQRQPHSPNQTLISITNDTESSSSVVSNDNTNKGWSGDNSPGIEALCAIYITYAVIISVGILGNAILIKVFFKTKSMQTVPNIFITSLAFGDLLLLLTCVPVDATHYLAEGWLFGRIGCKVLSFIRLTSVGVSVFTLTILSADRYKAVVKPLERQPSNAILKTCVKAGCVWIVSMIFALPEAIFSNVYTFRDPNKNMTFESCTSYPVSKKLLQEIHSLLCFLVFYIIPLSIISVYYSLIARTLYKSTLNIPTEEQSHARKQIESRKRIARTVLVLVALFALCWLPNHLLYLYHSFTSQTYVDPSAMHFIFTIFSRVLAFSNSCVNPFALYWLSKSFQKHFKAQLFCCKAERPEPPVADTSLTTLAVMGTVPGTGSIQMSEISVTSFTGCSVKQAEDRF
measured endpoint: pEC50
Answers are plain numbers, as −log10 of the molar value.

For every item in the list below, what is its measured pEC50?
1. CC(C)(C)COC(=O)c1cccc(CC(=O)N2CCNc3nc(C(F)(F)F)ccc3[C@H]2CC(=O)O)c1
2. CC(C)C(=O)Oc1cccc(CC(=O)N2CCNc3nc(C(F)(F)F)ccc3[C@H]2CC(=O)O)c1
3. CCCCC(=O)Oc1cccc(CC(=O)N2CCNc3nc(C(F)(F)F)ccc3[C@H]2CC(=O)O)c1

Response given:
8.25
7.17
7.72

* * *

Give measured EC50 for each item. Keep answers brief.
biological target: Bombesin receptor subtype-3 (Mus musculus, UniProt O54798); assay: Agonist activity at mouse BRS3 expressed in CHO-K1 cells by IP-One HTRF assay
Sequence (O54798 whole entry): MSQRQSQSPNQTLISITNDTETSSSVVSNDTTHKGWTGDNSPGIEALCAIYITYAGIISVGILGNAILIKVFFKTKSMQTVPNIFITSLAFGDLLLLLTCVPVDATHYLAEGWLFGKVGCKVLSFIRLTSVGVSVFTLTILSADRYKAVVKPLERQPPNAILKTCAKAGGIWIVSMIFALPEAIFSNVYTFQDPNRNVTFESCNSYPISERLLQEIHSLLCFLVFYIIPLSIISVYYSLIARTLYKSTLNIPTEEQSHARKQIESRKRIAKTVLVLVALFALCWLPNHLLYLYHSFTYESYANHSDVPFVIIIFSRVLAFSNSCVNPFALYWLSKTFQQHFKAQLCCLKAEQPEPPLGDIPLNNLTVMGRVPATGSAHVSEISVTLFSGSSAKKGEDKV

Consider the worked cases shown below.
CC(C)C(=O)Oc1cccc(CC(=O)N2CCNc3nc(C(F)(F)F)ccc3[C@H]2CC(=O)O)c1 :: 282 nM
O=C(O)C[C@@H]1c2ccc(C(F)(F)F)nc2NCCN1C(=O)Cc1cccc(OC(=O)CC2CC2)c1 :: 81 nM
CCCCOC(=O)c1cccc(CC(=O)N2CCNc3nc(C(F)(F)F)ccc3[C@H]2CC(=O)O)c1 :: 5.6 nM
CC(C)(C)COC(=O)c1cccc(CC(=O)N2CCNc3nc(C(F)(F)F)ccc3[C@H]2CC(=O)O)c1 :: 8.1 nM
CC(C)OC(=O)c1cccc(CC(=O)N2CCNc3nc(C(F)(F)F)ccc3[C@H]2CC(=O)O)c1 :: 45 nM
CC(C)COC(=O)c1cccc(CC(=O)N2CCNc3nc(C(F)(F)F)ccc3[C@H]2CC(=O)O)c1 :: 5.4 nM

For every item in the list below, what is its measured EC50?
1. O=C(O)C[C@@H]1c2ccc(C(F)(F)F)nc2NCCN1C(=O)Cc1cccc(C(=O)O)c1
2. CCCCC(=O)Oc1cccc(CC(=O)N2CCNc3nc(C(F)(F)F)ccc3[C@H]2CC(=O)O)c1
3. O=C(O)C[C@@H]1c2ccc(C(F)(F)F)nc2NCCN1C(=O)Cc1cccc(C(=O)OCC2CC2)c1
4. CC(C)(C)CC(=O)Oc1cccc(CC(=O)N2CCNc3nc(C(F)(F)F)ccc3[C@H]2CC(=O)O)c1
5. CC(C)CC(=O)Oc1cccc(CC(=O)N2CCNc3nc(C(F)(F)F)ccc3[C@H]2CC(=O)O)c1

Response given:
["> 10000 nM", "35 nM", "3.7 nM", "20 nM", "43 nM"]

Challenge: Provide the reported EC50 (system: Bombesin receptor subtype-3 (Mus musculus, UniProt O54798)) for `O=C(O)C[C@@H]1c2ccc(C(F)(F)F)nc2NCCN1C(=O)Cc1cccc(O)c1`
Response given: > 10000 nM

* * *

assay: Fraction unbound in mouse plasma; format: ADME, cell-free
measured endpoint: fraction unbound
Numbers only.

Challenge: # return recorded fraction unbound for entry `CC(C)CC(=O)Oc1cccc(CC(=O)N2CCNc3nc(C(F)(F)F)ccc3[C@H]2CC(=O)O)c1`
Response given: 0.108

* * *

assay: Solubility of the compound in JP2; assay type: physicochemical
measured endpoint: solubility (µg/mL)
Give bare numbers, in µg/mL.

O=C(O)C[C@@H]1c2ccc(C(F)(F)F)nc2NCCN1C(=O)Cc1cccc(O)c1 :: 780

Okay, next one:
Challenge: # return recorded solubility for entry `CC(C)CC(=O)Oc1cccc(CC(=O)N2CCNc3nc(C(F)(F)F)ccc3[C@H]2CC(=O)O)c1`
Response given: 900

* * *

system: Mus musculus; experiment: Cmax in mouse assessed as 2-[(5R)-4-[2-(3-hydroxyphenyl)acetyl]-8-(trifluoromethyl)-1,2,3,5-tetrahydropyrido[2,3-e][1,4]diazepin-5-yl]acetic acid inactive metabolite at 30 mg/kg, po; type: ADME, organism-based; design: dose 30 mg/kg, route oral; settings: in vivo
measured endpoint: log10 Cmax (log10 of the value in µM)
Answers are given as log10 of Cmax in µM.

CC(C)(C)CC(=O)Oc1cccc(CC(=O)N2CCNc3nc(C(F)(F)F)ccc3[C@H]2CC(=O)O)c1 :: -1.49
CCCCC(=O)Oc1cccc(CC(=O)N2CCNc3nc(C(F)(F)F)ccc3[C@H]2CC(=O)O)c1 :: 0.21
CC(C)CC(=O)Oc1cccc(CC(=O)N2CCNc3nc(C(F)(F)F)ccc3[C@H]2CC(=O)O)c1 :: 0.10
CC(C)C(=O)Oc1cccc(CC(=O)N2CCNc3nc(C(F)(F)F)ccc3[C@H]2CC(=O)O)c1 :: -0.17

Okay, next one:
Challenge: # return recorded log10 Cmax for entry `O=C(O)C[C@@H]1c2ccc(C(F)(F)F)nc2NCCN1C(=O)Cc1cccc(OC(=O)CC2CC2)c1`
Response given: -0.22

* * *

assay: Cmax in mouse at 30 mg/kg, po; type: ADME, organism-based; design: dose 30 mg/kg, route oral; conditions: in vivo
// false (0) strictly below 30 nM in Cmax; true (1) otherwise

For orientation, consider the following solved cases.
O=C(O)C[C@@H]1c2ccc(C(F)(F)F)nc2NCCN1C(=O)Cc1cccc(O)c1 :: true (1)
O=C(O)C[C@@H]1c2ccc(C(F)(F)F)nc2NCCN1C(=O)Cc1cccc(C(=O)OCC2CC2)c1 :: true (1)
CCCCOC(=O)c1cccc(CC(=O)N2CCNc3nc(C(F)(F)F)ccc3[C@H]2CC(=O)O)c1 :: false (0)
CC(C)OC(=O)c1cccc(CC(=O)N2CCNc3nc(C(F)(F)F)ccc3[C@H]2CC(=O)O)c1 :: true (1)
CC(C)(C)COC(=O)c1cccc(CC(=O)N2CCNc3nc(C(F)(F)F)ccc3[C@H]2CC(=O)O)c1 :: false (0)
CCCCC(=O)Oc1cccc(CC(=O)N2CCNc3nc(C(F)(F)F)ccc3[C@H]2CC(=O)O)c1 :: false (0)

Next molecule, please.
Challenge: Would you say `CC(C)(C)CC(=O)Oc1cccc(CC(=O)N2CCNc3nc(C(F)(F)F)ccc3[C@H]2CC(=O)O)c1` shows Cmax at minimum 30 nM?
Response given: false (0)

* * *

tested on: Mus musculus; test: Cmax in mouse assessed as 3-[2-[(5R)-5-(carboxymethyl)-8-(trifluoromethyl)-1,2,3,5-tetrahydropyrido[2,3-e][1,4]diazepin-4-yl]-2-oxoethyl]benzoic acid inactive metabolite at 30 mg/kg, po; format: ADME, organism-based; parameters: dose 30 mg/kg, route oral; conditions: in vivo
Give measured Cmax for each item. Keep answers brief.

CC(C)COC(=O)c1cccc(CC(=O)N2CCNc3nc(C(F)(F)F)ccc3[C@H]2CC(=O)O)c1 :: 2120 nM
CC(C)(C)COC(=O)c1cccc(CC(=O)N2CCNc3nc(C(F)(F)F)ccc3[C@H]2CC(=O)O)c1 :: 197 nM
CC(C)OC(=O)c1cccc(CC(=O)N2CCNc3nc(C(F)(F)F)ccc3[C@H]2CC(=O)O)c1 :: 918 nM

For every item in the list below, what is its measured Cmax?
1. CCCCOC(=O)c1cccc(CC(=O)N2CCNc3nc(C(F)(F)F)ccc3[C@H]2CC(=O)O)c1
2. O=C(O)C[C@@H]1c2ccc(C(F)(F)F)nc2NCCN1C(=O)Cc1cccc(C(=O)OCC2CC2)c1

Response given:
["1630 nM", "300 nM"]

* * *

tested on: Mus musculus; test: Drug metabolism in mouse assessed as ratio of compound to 3-[2-[(5R)-5-(carboxymethyl)-8-(trifluoromethyl)-1,2,3,5-tetrahydropyrido[2,3-e][1,4]diazepin-4-yl]-2-oxoethyl]benzoic acid inactive metabolites at 30 mg/kg, po; format: ADME, organism-based; design: dose 30 mg/kg, route oral; conditions: in vivo
measured endpoint: Ratio
Numbers only.

Consider the worked cases shown below.
CCCCOC(=O)c1cccc(CC(=O)N2CCNc3nc(C(F)(F)F)ccc3[C@H]2CC(=O)O)c1 :: 0.0175
CC(C)COC(=O)c1cccc(CC(=O)N2CCNc3nc(C(F)(F)F)ccc3[C@H]2CC(=O)O)c1 :: 0.0145
CC(C)OC(=O)c1cccc(CC(=O)N2CCNc3nc(C(F)(F)F)ccc3[C@H]2CC(=O)O)c1 :: 1.35
CC(C)(C)COC(=O)c1cccc(CC(=O)N2CCNc3nc(C(F)(F)F)ccc3[C@H]2CC(=O)O)c1 :: 0.0643

Okay, next one:
Challenge: # return recorded Ratio for entry `O=C(O)C[C@@H]1c2ccc(C(F)(F)F)nc2NCCN1C(=O)Cc1cccc(C(=O)OCC2CC2)c1`
Response given: 0.131

* * *

assay: Half life in mouse at 30 mg/kg, po; type: ADME, organism-based; design: dose 30 mg/kg, route oral; details: in vivo
measured endpoint: half-life (min)
Give bare numbers, in min.

Challenge: # return recorded half-life for entry `O=C(O)C[C@@H]1c2ccc(C(F)(F)F)nc2NCCN1C(=O)Cc1cccc(O)c1`
Response given: 15

* * *

test: Tmax in mouse at 30 mg/kg, po; format: ADME, organism-based; set-up: dose 30 mg/kg, route oral; conditions: in vivo
measured endpoint: Tmax (min)
One number for each entry, in min.

Challenge: # return recorded Tmax for entry `O=C(O)C[C@@H]1c2ccc(C(F)(F)F)nc2NCCN1C(=O)Cc1cccc(O)c1`
Response given: 15
